# assay system: human ENPP1 enzymatic domain (Homo sapiens, UniProt P22413)
# Construct: recombinant protein containing the human ENPP1 enzymatic domain
# Sequence (P22413 191-591 limits assumed): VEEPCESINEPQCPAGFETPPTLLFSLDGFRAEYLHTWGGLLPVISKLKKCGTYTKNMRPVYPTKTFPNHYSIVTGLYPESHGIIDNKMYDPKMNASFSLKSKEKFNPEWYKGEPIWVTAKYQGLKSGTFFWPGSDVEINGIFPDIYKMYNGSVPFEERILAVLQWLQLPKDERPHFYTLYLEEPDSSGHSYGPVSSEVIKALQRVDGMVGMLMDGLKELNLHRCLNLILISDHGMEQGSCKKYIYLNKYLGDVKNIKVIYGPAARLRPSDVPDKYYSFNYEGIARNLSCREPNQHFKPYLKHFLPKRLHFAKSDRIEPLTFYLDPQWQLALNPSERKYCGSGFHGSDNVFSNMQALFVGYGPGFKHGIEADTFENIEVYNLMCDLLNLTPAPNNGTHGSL
# test description: ENPP1 Enzymatic Inhibition Assay (2′3′-cGAMP substrate, AMP-Glo luminescence)
# condition notes: 1 nM ENPP1, 20 uM 2′3′-cGAMP, 30 minutes at 37° C.
value type: IC50

// recorded IC50 for `COc1ccc2c(Oc3ccc([S@@](=N)(=O)NC[C@@H](C)O)cc3)ccnc2c1` : < 10 nM

// recorded IC50 for `COc1ccc2c(Nc3ccc([S@@](=N)(=O)NCCCn4cnnc4)cc3)ccnc2c1` : < 10 nM

// recorded IC50 for `COc1ccc2c(Oc3ccc([S@@](=N)(=O)NC[C@H](O)C(C)(C)C)cc3)ccnc2c1` : 10 to 100 nM

// recorded IC50 for `COc1ccc2c(Nc3ccc([S@@](=N)(=O)N[C@@H](C)c4ccnn4C)cc3)ccnc2c1` : < 10 nM

// recorded IC50 for `COc1ccc2c(Nc3ccc([S@](=N)(=O)NC[C@H](C)O)cc3)ccnc2c1` : < 10 nM

// recorded IC50 for `COc1ccc2c(Nc3ccc([S@](=N)(=O)NC[C@@H](C)O)cc3)ncnc2c1` : 10 to 100 nM

// recorded IC50 for `CN[S@](=N)(=O)c1ccc(Oc2ccnc3cc(OC)ccc23)cc1` : < 10 nM

// recorded IC50 for `COc1cc2nccc(Nc3ccc([S@@](=N)(=O)NC4CC4)cc3)c2cc1F` : < 10 nM

// recorded IC50 for `COc1ccc2c(Nc3ccc([S@](=N)(=O)NC[C@@H](C)O)cc3)ccnc2c1` : < 10 nM

// recorded IC50 for `COc1ccc2c(Oc3ccc([S@@](=N)(=O)NC[C@H](C)O)cc3)ccnc2c1` : < 10 nM
